Recorded Kd, one value per entry.
target under test: T1, extracellular domain of human CD79b (huCD79becd) (UniProt P40259 29-159)
T1 chain: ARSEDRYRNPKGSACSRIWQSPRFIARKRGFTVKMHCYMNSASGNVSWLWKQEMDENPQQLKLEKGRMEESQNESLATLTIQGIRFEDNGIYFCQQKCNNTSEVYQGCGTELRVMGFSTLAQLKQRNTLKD
test details: Biacore; IgG
Give the number; nM is assumed, so skip it.

{"binder": "MA79b-grafted humanized antibody (huMA79b graft), IgG (antibody, V domains shown) VH: EVQLVESGGGLVQPGGSLRLSCAASGYTFSSYWIEWVRQAPGKGLEWVGEILPGGGDTNYNEIFKGRFTISADTSKNTAYLQMNSLRAEDTAVYYCTRRVPVYFDYWGQGTLVTVSS VL: DIQMTQSPSSLSASVGDRVTITCKASQSVDYDGDSFLNWYQQKPGKAPKLLIYAASNLESGVPSRFSGSGSGTDFTLTISSLQPEDFATYYCQQSNEDPLTFGQGTKVEIKR", "Kd, nM": 261}

// switching to the query binder
So, MA79b-grafted humanized antibody variant L2/H3 (huMA79b L2/H3), IgG (antibody, V domains shown) VH: EVQLVESGGGLVQPGGSLRLSCAASGYTFSSYWIEWVRQAPGKGLEWVGEILPGGGDTNYNEIFKGRFTISADTSKNTAYLQMNSLRAEDTAVYYCTRRVPIRLDYWGQGTLVTVSS VL: DIQMTQSPSSLSASVGDRVTITCKASQSVDYDGDSFLNWYQQKPGKAPKLLIYAARKLGRGVPSRFSGSGSGTDFTLTISSLQPEDFATYYCQQSNEDPLTFGQGTKVEIKR ? Its Kd was 3
